- assay.remarks: Oral bioavailability in monkey at 20 mg/kg by LC/MS/MS analysis
- Type: ADME, organism-based, Macaca mulatta
- protocol.conditions: rhesus monkey, in vivo
attribute.measured: bioavailability (%)

CC(=O)OCOC(=O)c1c(F)ccc2c1OB(O)[C@@H]1C[C@H]21 103
CC(C)C(=O)OCOC(=O)c1c(F)ccc2c1OB(O)[C@@H]1C[C@H]21 106
CCCC(=O)OCOC(=O)c1c(F)ccc2c1OB(O)[C@@H]1C[C@H]21 104

====

- assay.remarks: Solubility of compound in water in presence of 0.5 M PBS at pH 7.0 using crystalline sample
- Type: physicochemical
- protocol.conditions: water with 0.5 M PBS
attribute.measured: solubility thermodynamic (mg/mL)
Return type: number; implicit unit mg/mL.

Answer with the recorded solubility thermodynamic for the compound listed here: CC(C)C(=O)OCOC(=O)c1c(F)ccc2c1O[B-](O)(O)[C@@H]1C[C@H]21.[Na+] 10.6

====

- assay.remarks: Solubility of compound in water at pH 7.2 using crystalline sample
- Type: physicochemical
attribute.measured: solubility

Using the record for CC(C)C(=O)OCOC(=O)c1c(F)ccc2c1O[B-](O)(O)[C@@H]1C[C@H]21.[Na+] , state its measured solubility. > 100 mg/mL

====

- assay.remarks: Lipophilicity, logD of compound at pH 7.4
- Type: physicochemical
- protocol.conditions: buffer
attribute.measured: logD
# respond with the number and nothing more

Could you please provide reported logD for CC(C)C(=O)OCOC(=O)c1c(F)ccc2c1O[B-](O)(O)[C@@H]1C[C@H]21.[Na+] ? Thanks! 0.33

====

- assay.remarks: Half life in human liver microsomes measured upto 30 min in presence of NADPH by HPLC analysis
- Type: ADME, Microsome
attribute.measured: half-life (min)

Example compounds with recorded half-life:
CCCC(=O)OCOC(=O)c1c(F)ccc2c1OB(O)[C@@H]1C[C@H]21 28
O=C(OCOC(=O)c1c(F)ccc2c1OB(O)[C@@H]1C[C@H]21)OC1CCCCC1 27

P: O=C(OCOC(=O)C1CCOCC1)c1c(F)ccc2c1OB(O)[C@@H]1C[C@H]21
Q: CC(=O)OCOC(=O)c1c(F)ccc2c1OB(O)[C@@H]1C[C@H]21
For this pair, P and Q , which shows a numerically higher half-life? // caller expects the label of the chosen entry P
(P: 23 min, Q: 8 min)
